Reported IC50 values are given for each entry in this list.
# SYSTEM_NAME: GDP-bound KRAS protein (aa 1-169), containing both G12C and C118A amino acid substitutions (Homo sapiens, UniProt P01116, C118A/G12C)
# Sequence (P01116 1-169 isoform P01116-2 G12C/C118A): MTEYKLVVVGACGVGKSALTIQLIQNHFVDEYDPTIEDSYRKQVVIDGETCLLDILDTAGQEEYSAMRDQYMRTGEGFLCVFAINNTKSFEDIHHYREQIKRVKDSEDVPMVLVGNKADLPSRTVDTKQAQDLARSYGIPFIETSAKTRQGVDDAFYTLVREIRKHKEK
# PROTOCOL_DETAILS: Coupled nucleotide exchange assay (SOS-mediated, AlphaScreen)
# Type: biochemical
# RUN_PARAMETERS: 2 h compound pre-incubation; read-out: Avg 2 h Coupled exchange IC50
Reply with the number and its unit after it.

Example results:
The recorded IC50 for C=CC(=O)N1CC2(C1)CN(c1nc3c(c(N[C@H](CC(=O)NC)CC(C)C)n1)CCC(C)C3)CC2F (some centres unmarked) is 196 nM

Input "C=CC(=O)N1CC2(CCN(c3nc(N[C@H](CC(=O)NC)CC(C)C)c4ccc(C)cc4n3)C2)C1" . Output IC50: 339 nM

---
Entry "C=CC(=O)N1CC2(CCN(c3nc(N[C@H](CC(=O)NC)CC(C)C)c4ccncc4n3)C2)C1" — recorded IC50 = 4840 nM

Documented IC50 of "C=CC(=O)N1CC2(CCN(c3nc(N[C@H](CC(=O)NC)CC(C)C)c4ncn(C)c4n3)C2)C1" : 8790 nM

// IC50 value for "C=CC(=O)N1CC2(CCN(c3nc4c(c(N[C@@H](CC(C)C)Cn5cncn5)n3)CCC(C)(C)C4)C2)C1" : 1510 nM

IC50 reading for "C=CC(=O)N1CC2(CCN(c3nc(N[C@H](CC(=O)NC)CC(C)C)c4ccc(C#N)cc4n3)C2)C1" : 180 nM

The reported value for "C=C(C(=O)N1CC2(CCN(c3nc(N[C@H](CC(=O)NC)CC(C)C)c4ccc(C)cc4n3)C2)C1)C(F)(F)F" in terms of IC50 is 403 nM

Per the record, "C=CC(=O)N1CC2(CCN(c3nc4c(c(N[C@H](CC(=O)NC)CC(C)C)n3)CCCC4)C2)C1" has IC50 of 702 nM

Record "C=CC(=O)N1CC2(CCN(c3nc4c(c(N[C@H](Cc5ncc[nH]5)CC(C)C)n3)CCCC4)C2)C1" , field IC50: 1160 nM

# IC50 of C=CC(=O)N1CC2(CCN(c3nc4c(c(N[C@H](CC(=O)NC)CC(C)C)n3)CCC(C)C4)C2)C1 (some centres unmarked) = 216 nM

---

The entries below come with measured IC50 values attached.
# SYSTEM_NAME: GDP-bound KRAS protein (aa 1-169), containing both G12C and C118A amino acid substitutions (Homo sapiens, UniProt P01116, C118A/G12C)
# PROTOCOL_DETAILS: Coupled nucleotide exchange assay (SOS-mediated, AlphaScreen)
# Assay type: biochemical
# RUN_PARAMETERS: 2 h compound pre-incubation; read-out: Avg 2 h Coupled exchange IC50
Dear colleague, please return just the value in nM, with no unit written.

Recorded results for 3 compounds are shown here.
Recorded IC50 (compound "C=CC(=O)N1CC2(CCN(c3nc4c(c(N[C@H](Cc5cc(C)no5)CC(C)C)n3)CCC(C)(C)C4)C2)C1" ): 93

Measured IC50, "C=CC(=O)N1CC2(CCN(c3nc4c(c(N[C@H](Cc5nnc(C)s5)CC(C)C)n3)CCC(C)(C)C4)C2)C1" : 50

get_value(item= "C=CC(=O)N1CC2(CCN(c3nc(N[C@H](CC(=O)NC)CC(C)C)c4ncc(-c5nccs5)cc4n3)C2)C1" , readout=IC50) returns 23

Turning now to a further compound:
compound C=CC(=O)N1CC2(C1)CN(c1nc3c(c(N[C@H](CC(=O)NC)CC(C)C)n1)CCC(C)C3)CC2(F)F (stereo partly shown) , IC50 observed: 19
